Cited source: patent US20250136570A1

// reported pIC50 per item
Molecular target: HDAC3/NCor2 (Homo sapiens (Human))
Assay: HDAC3 inhibition, Fluor de Lys fluorescent enzyme assay
Conditions: 3 hours pre-incubation at room temp; 1.2 nM enzyme; 16 μM Fluor de Lys substrate; duplicate
pIC50: −log10 of the molar value.

MOLECULE: Cc1cncc(S(=N)(=O)c2ccc(C(=O)Nc3cc(-c4ccc(F)cc4)ccc3N)cc2)c1 (centres unmarked) [Compound 199]
pIC50: 5.70 to 6.30
//
MOLECULE: CS(=N)(=O)c1ccc(C(=O)Nc2cc(-c3cccs3)ccc2N)cn1 (centres unmarked) [Compound 110]
pIC50: 5.70 to 6.30
//
MOLECULE: C[S@@](=N)(=O)c1ccc(C(=O)Nc2cc(-c3ccc(F)cc3)ccc2N)cc1 [Compound 132]
pIC50: 5.70 to 6.30
//
MOLECULE: CS(=N)(=O)c1cnc2sc(C(=O)Nc3cc(-c4ccc(F)cc4)ccc3N)cc2c1 (centres unmarked) [Compound 202]
pIC50: < 5.70
//
MOLECULE: N=S(=O)(c1ccc(C(=O)Nc2cc(-c3ccc(F)cc3)ccc2N)cc1)c1cccc(F)c1 (centres unmarked) [Compound 216]
pIC50: 5.70 to 6.30
//
MOLECULE: CS(=N)(=O)c1ccc(C(=O)Nc2cc(-c3ccc(F)c(F)c3)ccc2N)cc1 (centres unmarked) [Compound 147]
pIC50: < 5.70
//
MOLECULE: CS(=N)(=O)c1ccc(C(=O)Nc2cc(-c3ccc(F)s3)ccc2N)nn1 (centres unmarked) [Compound 152]
pIC50: 6.30 to 7.00
//
MOLECULE: Cn1cncc1S(=N)(=O)c1ccc(C(=O)Nc2cc(-c3ccc(F)cc3)ccc2N)cc1 (centres unmarked) [Compound 242]
pIC50: 5.70 to 6.30
//
MOLECULE: C[S@](=N)(=O)c1ccc(C(=O)Nc2cc(-c3cccs3)ccc2N)cc1 (single isomer, unassigned) [Compound 106]
pIC50: 5.70 to 6.30
//
MOLECULE: N=S(=O)(c1ccc(C(=O)Nc2cc(-c3ccc(F)cc3)ccc2N)cc1)C(F)(F)F (centres unmarked) [Compound 177]
pIC50: 5.70 to 6.30
//
MOLECULE: CS(=N)(=O)c1cnc(C(=O)Nc2cc(-c3ccc(F)cc3)ccc2N)s1 (centres unmarked) [Compound 188]
pIC50: 5.70 to 6.30

---

Target: HDAC3/NCor2 (Homo sapiens (Human), UniProt O15379)
Sequence (O15379 whole entry): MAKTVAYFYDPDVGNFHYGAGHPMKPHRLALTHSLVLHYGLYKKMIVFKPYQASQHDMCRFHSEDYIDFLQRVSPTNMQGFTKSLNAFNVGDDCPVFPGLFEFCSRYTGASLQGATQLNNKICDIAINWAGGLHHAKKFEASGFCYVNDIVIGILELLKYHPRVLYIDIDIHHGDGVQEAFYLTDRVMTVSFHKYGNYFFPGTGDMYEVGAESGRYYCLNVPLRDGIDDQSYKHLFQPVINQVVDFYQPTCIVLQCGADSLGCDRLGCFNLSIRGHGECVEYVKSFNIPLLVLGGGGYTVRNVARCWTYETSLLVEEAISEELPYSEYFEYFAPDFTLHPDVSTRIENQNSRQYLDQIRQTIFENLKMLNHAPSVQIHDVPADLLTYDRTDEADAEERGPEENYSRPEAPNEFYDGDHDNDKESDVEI
Sequence (Q9Y618 395-489 partner): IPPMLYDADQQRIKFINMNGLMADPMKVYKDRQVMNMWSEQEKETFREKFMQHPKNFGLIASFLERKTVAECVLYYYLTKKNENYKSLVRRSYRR
Assay: HDAC3 inhibition, Fluor de Lys fluorescent enzyme assay
Details: 3 hours pre-incubation at room temp; 1.2 nM enzyme; 16 μM Fluor de Lys substrate; duplicate

COMPOUND: CC(C)(C)C(=O)N=S(C)(=O)c1ccc(C(=O)Nc2cc(-c3cccs3)ccc2N)cc1 (stereo not drawn)
IC50: 500 to 2000 nM

COMPOUND: C=C(C)c1cncc(S(=N)(=O)c2ccc(C(=O)Nc3cc(-c4ccc(F)cc4)ccc3N)cc2)c1 (stereo not drawn)
IC50: 500 to 2000 nM

COMPOUND: CS(=N)(=O)c1ccc(C(=O)Nc2cc(-c3ccc(F)s3)ccc2N)cc1 (stereo not drawn)
IC50: 500 to 2000 nM

COMPOUND: CS(=N)(=O)c1ccc(C(=O)Nc2cc(-c3ccc(F)cc3)ccc2N)nn1 (stereo not drawn)
IC50: 100 to 500 nM

COMPOUND: N=S(=O)(c1ccc(C(=O)Nc2cc(-c3ccc(F)cc3)ccc2N)cc1)c1cnccc1O (stereo not drawn)
IC50: 500 to 2000 nM

COMPOUND: Cc1nc[nH]c1S(=N)(=O)c1ccc(C(=O)Nc2cc(-c3ccc(F)cc3)ccc2N)cc1 (stereo not drawn)
IC50: 100 to 500 nM

COMPOUND: CS(=N)(=O)c1ccc(C(=O)Nc2cc(-c3ccc(F)cc3)ccc2N)cn1 (stereo not drawn)
IC50: 500 to 2000 nM

COMPOUND: CS(=N)(=O)c1ccc(C(=O)Nc2cc(-c3ccc(F)cc3F)ccc2N)cc1 (stereo not drawn)
IC50: > 2000 nM

COMPOUND: Cc1ncc(S(=N)(=O)c2ccc(C(=O)Nc3cc(-c4ccc(F)cc4)ccc3N)cc2)cn1 (stereo not drawn)
IC50: 500 to 2000 nM
